Test system: Botrytis cinerea
assay overview: Eggplant grey mold
Assay type: in vivo
Design: key: 0: No disease control; 1: Low level of control; 2: Moderate control; 3: High level of control
stated conditions: eggplant sprayed with 500 ppm, inoculated 24 h later, rated after 3-4 days
measurement name: Disease Control Rating at 500 ppm

Study these solved cases before continuing.
compound: Cn1cc(C(=O)Nc2ccccc2CC2CCCCCC2)c(C(F)(F)F)n1
Disease Control Rating at 500 ppm: 1
//
compound: Cn1cc(C(=O)Nc2ccccc2CC2CCCCC2)c(C(F)F)n1
Disease Control Rating at 500 ppm: 0
//
compound: Cn1cc(C(=O)Nc2ccccc2C2=CCCCC2)c(C(F)F)n1
Disease Control Rating at 500 ppm: 0
//
compound: Cc1nn(C)cc1C(=O)Nc1ccccc1C1CCCCCC1
Disease Control Rating at 500 ppm: 3

What does the data say about its Disease Control Rating at 500 ppm? Entry: Cn1cc(C(=O)Nc2ccccc2C2CCCCCC2)c(C(F)F)n1
2

What does the data say about its Disease Control Rating at 500 ppm? Entry: Cn1cc(C(=O)Nc2ccccc2C2CC(C)(C)CC(C)(C)C2)c(C(F)F)n1
1

What does the data say about its Disease Control Rating at 500 ppm? Entry: Cn1cc(C(=O)Nc2ccccc2OC2(C)CCCC2)c(C(F)(F)F)n1
0

What does the data say about its Disease Control Rating at 500 ppm? Entry: Cn1cc(C(=O)Nc2ccccc2C2CCCCCCC2)c(I)n1
1

What does the data say about its Disease Control Rating at 500 ppm? Entry: Cn1nc(C(F)(F)F)c(C(=O)Nc2ccccc2C2CCCCCC2)c1F
0
